Biological target: D(3) dopamine receptor (Homo sapiens, UniProt P35462)
Sequence (P35462 whole entry): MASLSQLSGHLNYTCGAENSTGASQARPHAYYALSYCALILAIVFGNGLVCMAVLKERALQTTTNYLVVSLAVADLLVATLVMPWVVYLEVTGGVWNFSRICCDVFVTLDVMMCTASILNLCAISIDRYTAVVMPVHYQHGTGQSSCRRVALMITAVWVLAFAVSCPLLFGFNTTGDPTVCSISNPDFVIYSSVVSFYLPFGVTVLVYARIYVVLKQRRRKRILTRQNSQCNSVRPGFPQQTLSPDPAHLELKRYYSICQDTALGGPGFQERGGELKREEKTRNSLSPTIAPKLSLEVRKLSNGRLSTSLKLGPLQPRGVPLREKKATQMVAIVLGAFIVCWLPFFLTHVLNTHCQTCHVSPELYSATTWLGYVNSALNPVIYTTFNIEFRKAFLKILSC
Experiment: Antagonist activity at dopamine D3 receptor by GTPgammaS binding assay
experimental.readout: Ki (µM)

Below, 3 compounds whose answers are already recorded.
INSERT INTO assay_data (compound, experimental_readout, observed_value) VALUES
  ('CC(C)c1ccc(S(=O)(=O)Nc2ccc(C34CNCC3C4)cc2)cc1 (single isomer, unassigned; enantiomer 2)', 'Ki', 0.2),
  ('O=S(=O)(Nc1ccc([C@]23CNC[C@H]2C3)cc1)c1ccc(C(F)(F)F)cc1', 'Ki', 0.251),
  ('CC(C)c1ccc(CS(=O)(=O)c2ccc([C@]34CNC[C@H]3C4)cc2)cc1', 'Ki', 0.0251);

[P] O=S(=O)(Nc1ccc([C@]23CNC[C@H]2C3)cc1)c1ccc(OC(F)(F)F)cc1
[Q] CN(c1ccc([C@]23CNC[C@H]2C3)cc1)S(=O)(=O)c1ccccc1
[R] C=CCN1C[C@H]2C[C@@]2(c2ccc(NS(=O)(=O)c3ccc(C(C)C)cc3)cc2)C1
[S] CCCCc1ccc(S(=O)(=O)Nc2ccc([C@]34CNC[C@H]3C4)cc2)cc1
Q: Would you mind ranking these compounds by ascending Ki? Answer format: list of labels, ordered as asked.
Ans: R, S, Q, P
(R: 0.00251 µM, S: 0.00501 µM, Q: 0.0794 µM, P: 0.631 µM)

[a] CC(C)c1ccc(S(=O)(=O)Nc2ccc([C@]34CNC[C@H]3C4)cc2)cc1 (racemic)
[b] CCN1C[C@H]2C[C@@]2(c2ccc(NS(=O)(=O)c3ccc(C(C)C)cc3)cc2)C1
Q: Of a and b , which carries the smaller reported Ki figure? Could you answer with the label of the item you picked?
Ans: a
(a: 0.00251 µM, b: 0.00794 µM)
